Test system: SCC15 head and neck squamous cell carcinoma cells
Assay: Cell growth inhibition (CellTiter-Glo), SCC15
Type: cell-based
Conditions: Homo sapiens, SCC-15, 72 h, hn_SCC15, −HGF, 3 days
pIC50: −log10 of the molar value.
result type: pIC50

{"compound": "C#Cc1cccc(Nc2ncnc3cc(OCCOC)c(OCCOC)cc23)c1 [Erlotinib]", "result type": "pIC50", "value observed": 5.79}
{"compound": "CS(=O)(=O)CCNCc1ccc(-c2ccc3ncnc(Nc4ccc(OCc5cccc(F)c5)c(Cl)c4)c3c2)o1 [Lapatinib]", "result type": "pIC50", "value observed": 5.97}

----------
System: N87 gastric carcinoma cells
Assay: Cell growth inhibition (CellTiter-Glo), N87
Type: cell-based
Conditions: Homo sapiens, 72 h, gastric_N87, +HGF (2 ng/mL), 3 days
result type: IC50 (µM)
Enter your answer as a number in µM; do not include the unit.

Prompt: # get_value(readout='IC50', item= CS(=O)(=O)CCNCc1ccc(-c2ccc3ncnc(Nc4ccc(OCc5cccc(F)c5)c(Cl)c4)c3c2)o1 )
Completion: 4.8

----------
System: KPL-4 breast cancer cells
Assay: Cell growth inhibition (CellTiter-Glo), KPL-4
Format: cell-based
Details: Homo sapiens, KPL4, 72 h, breast_KPL4, −HGF, 3 days
result type: IC50 (µM)
Enter your answer as a number in µM; do not include the unit.

Prompt: # get_value(readout='IC50', item= CS(=O)(=O)CCNCc1ccc(-c2ccc3ncnc(Nc4ccc(OCc5cccc(F)c5)c(Cl)c4)c3c2)o1 )
Completion: 1

----------
Tested on: OE33 esophageal carcinoma cells
Test: Cell growth inhibition (CellTiter-Glo), OE33
Format: cell-based, human
Conditions: eso_OE33, −HGF, 3 days
Description: Esophageal carcinoma cell line OE33 was purchased from ECACC European Collection of Cell Cultures (UK). […] Cell growth inhibition was determined via CellTiter-Glo cell viability assays. […] ATP levels were determined by adding Cell Titer Glo0 (Promega), incubating for 20 minutes then the luminescent signal was read on the SpectraMax M5 plate with a 0.5 second integration time. Cell growth was calculated relative to vehicle (DMSO) treated control wells. […]
result type: IC50 (µM)
Enter your answer as a number in µM; do not include the unit.

Prompt: Tell me reported IC50 for CS(=O)(=O)CCNCc1ccc(-c2ccc3ncnc(Nc4ccc(OCc5cccc(F)c5)c(Cl)c4)c3c2)o1 [Lapatinib] , tested with OE33 esophageal carcinoma cells.
Completion: 6.52

----------
Test system: SCC15 head and neck squamous cell carcinoma cells
Experiment: Cell growth inhibition (CellTiter-Glo), SCC15
Assay type: cell-based
Details: Homo sapiens, SCC-15, 72 h, hn_SCC15, +HGF (2 ng/mL), 3 days
Description: Esophageal carcinoma cell line OE33 was purchased from ECACC European Collection of Cell Cultures (UK). […] Cell growth inhibition was determined via CellTiter-Glo cell viability assays. […] ATP levels were determined by adding Cell Titer Glo0 (Promega), incubating for 20 minutes then the luminescent signal was read on the SpectraMax M5 plate with a 0.5 second integration time. Cell growth was calculated relative to vehicle (DMSO) treated control wells. […]
pIC50: −log10 of the molar value.
result type: pIC50

[I] C#Cc1cccc(Nc2ncnc3cc(OCCOC)c(OCCOC)cc23)c1
[II] CS(=O)(=O)CCNCc1ccc(-c2ccc3ncnc(Nc4ccc(OCc5cccc(F)c5)c(Cl)c4)c3c2)o1
Prompt: When I and II are compared, which has the higher number for pIC50? Label of pick, please.
Completion: II
